Tested on: Fibroblast
Experiment: Multiplex assay against human fibroblast
Format: toxicity, cell-based
Details: 12 h, 10 µM, compound concentration 10 uM, replicate 2
Hi! Could you tag entries with Population Pyknosed Nuclei (%) below 30% as Met, and those at or above as Not met? Much appreciated.

Examples with answers:
Query string: Does the reported Population Pyknosed Nuclei (%) of COc1cccc2c1c(NS(=O)(=O)c1ccc(Cl)s1)nn2Cc1cccc(CNC(=O)C(C)(C)O)c1 stay below 30%?
Result string: Met

Query string: Does the reported Population Pyknosed Nuclei (%) of CC[C@@H](C)Nc1nc(C)nc2c(-c3ccc(OC)nc3C)c(C)nn12 stay below 30%?
Result string: Not met

Query string: Does the reported Population Pyknosed Nuclei (%) of CN[C@@H](C)C(=O)N[C@H](C(=O)N1CCC[C@H]1C(=O)Nc1snnc1-c1ccccc1)C1CCCCC1 stay below 30%?
Result string: Not met

Query string: Does the reported Population Pyknosed Nuclei (%) of CCCCC1=NC2(CCCC2)C(=O)N1Cc1ccc(-c2ccccc2-c2nnn[nH]2)cc1 stay below 30%?
Result string: Met

Query string: Does the reported Population Pyknosed Nuclei (%) of CC(C)(C)c1cc(NC(=O)Nc2ccc(-c3cn4c(n3)sc3cc(OCCN5CCOCC5)ccc34)cc2)no1 stay below 30%?
Result string: Met

***
Query string: Does the reported Population Pyknosed Nuclei (%) of CC(C)COc1ccc(CNC(=O)N(Cc2ccc(F)cc2)C2CCN(C)CC2)cc1 stay below 30%?
Result string: Met

Query string: Does the reported Population Pyknosed Nuclei (%) of N#Cc1c(Oc2cccc(OS(=O)(=O)CCCC(F)(F)F)c2)cccc1C(F)(F)F stay below 30%?
Result string: Not met

Query string: Does the reported Population Pyknosed Nuclei (%) of CCCCC(=O)N(Cc1ccc(-c2ccccc2-c2nnn[nH]2)cc1)[C@H](C(=O)O)C(C)C stay below 30%?
Result string: Met

Query string: Does the reported Population Pyknosed Nuclei (%) of CN1CCN(c2cc(-c3ccccc3)nc(N)n2)CC1 stay below 30%?
Result string: Met
